Item-by-item account of EC50
- testedTarget: s-site in NrdA (Leeuwenhoekiella blandensis)
- Sequence (A3XHF8 1-600): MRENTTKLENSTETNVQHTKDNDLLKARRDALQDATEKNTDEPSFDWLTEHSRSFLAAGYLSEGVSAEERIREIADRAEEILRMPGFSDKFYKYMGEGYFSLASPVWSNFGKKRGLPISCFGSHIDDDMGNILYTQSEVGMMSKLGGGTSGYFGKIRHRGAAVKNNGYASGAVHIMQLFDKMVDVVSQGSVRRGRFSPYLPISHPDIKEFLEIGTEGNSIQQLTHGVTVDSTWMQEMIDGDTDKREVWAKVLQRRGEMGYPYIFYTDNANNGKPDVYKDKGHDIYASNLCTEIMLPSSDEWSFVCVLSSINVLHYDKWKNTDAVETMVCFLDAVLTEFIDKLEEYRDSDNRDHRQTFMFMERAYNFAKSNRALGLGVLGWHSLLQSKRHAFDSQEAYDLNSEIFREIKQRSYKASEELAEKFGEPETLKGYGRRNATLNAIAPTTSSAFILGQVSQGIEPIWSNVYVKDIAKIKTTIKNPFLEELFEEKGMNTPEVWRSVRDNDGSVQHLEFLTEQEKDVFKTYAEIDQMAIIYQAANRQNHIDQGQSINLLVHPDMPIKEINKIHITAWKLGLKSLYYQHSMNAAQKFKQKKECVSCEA
- Sequence (A3XHF9 100-427 partner): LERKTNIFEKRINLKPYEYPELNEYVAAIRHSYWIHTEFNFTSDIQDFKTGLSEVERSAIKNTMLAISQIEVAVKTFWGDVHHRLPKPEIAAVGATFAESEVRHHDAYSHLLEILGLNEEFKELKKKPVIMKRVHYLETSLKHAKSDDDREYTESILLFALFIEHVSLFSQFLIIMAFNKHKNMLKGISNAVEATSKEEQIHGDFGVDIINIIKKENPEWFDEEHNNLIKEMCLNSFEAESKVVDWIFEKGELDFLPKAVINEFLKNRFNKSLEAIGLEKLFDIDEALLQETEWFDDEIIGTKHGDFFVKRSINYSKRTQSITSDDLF
- experimentalDetails: Enzyme activity assay, CDP reduction, effector titration with NrdB∆99 (s-site)
- recordedConditions: 0.5 µM NrdA and 2 µM NrdB∆99, read-out: KL (s-site), concentration of allosteric effector that gives half maximal enzyme activity
assayReadout: EC50 (µM)

>>> observedvalue("Nc1ncnc2c1ncn2[C@H]1C[C@H](O)[C@@H](COP(=O)(O)OP(=O)(O)OP(=O)(O)O)O1")
1.4
>>> observedvalue("Nc1ncnc2c1ncn2[C@@H]1O[C@H](COP(=O)(O)OP(=O)(O)OP(=O)(O)O)[C@@H](O)[C@H]1O")
30

----------
Item-by-item account of pKd
- testedTarget: NrdB (Leeuwenhoekiella blandensis)
- Sequence (A3XHF9 entry or part of it): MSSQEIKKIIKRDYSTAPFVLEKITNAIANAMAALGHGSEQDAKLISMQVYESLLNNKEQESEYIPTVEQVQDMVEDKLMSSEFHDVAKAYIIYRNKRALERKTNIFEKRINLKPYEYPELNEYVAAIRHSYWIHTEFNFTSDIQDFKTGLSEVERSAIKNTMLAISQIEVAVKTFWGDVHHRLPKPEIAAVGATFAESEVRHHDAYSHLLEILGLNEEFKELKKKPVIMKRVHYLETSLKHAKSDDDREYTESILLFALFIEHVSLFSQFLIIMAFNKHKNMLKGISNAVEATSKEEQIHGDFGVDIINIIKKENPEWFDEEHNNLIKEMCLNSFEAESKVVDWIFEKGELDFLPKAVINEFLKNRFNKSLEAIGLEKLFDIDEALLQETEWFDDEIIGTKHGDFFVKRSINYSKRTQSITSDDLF
pKd: −log10 of the molar value.
assayReadout: pKd

>>> observedvalue("Nc1ncnc2c1ncn2[C@@H]1O[C@H](COP(=O)(O)OP(=O)(O)OP(=O)(O)O)[C@@H](O)[C@H]1O [ATP]")
4.42
>>> observedvalue("Nc1ncnc2c1ncn2[C@H]1C[C@H](O)[C@@H](COP(=O)(O)OP(=O)(O)OP(=O)(O)O)O1 [dATP]")
6.00

----------
- testedTarget: L. blandensis RNR, a-site (NrdB-linked ATP-cone) (Leeuwenhoekiella blandensis, UniProt A3XHF9)
- Sequence (A3XHF8 entry or part of it): as the sequence (A3XHF8 1-600) above
- Sequence (A3XHF9 entry or part of it): as the sequence (A3XHF9 entry or part of it) above
- experimentalDetails: Enzyme activity assay with wild type NrdB (overall activity regulation, a-site)
pKi: −log10 of the molar value.
assayReadout: pKi

>>> observedvalue("Nc1ncnc2c1ncn2[C@H]1C[C@H](O)[C@@H](COP(=O)(O)OP(=O)(O)OP(=O)(O)O)O1")
4.70

----------
- testedTarget: L. blandensis RNR, a-site (NrdB-linked ATP-cone) (Leeuwenhoekiella blandensis, UniProt A3XHF9)
- experimentalDetails: Enzyme activity assay with wild type NrdB (overall activity regulation, a-site)
assayReadout: EC50 (µM)

>>> observedvalue("Nc1ncnc2c1ncn2[C@@H]1O[C@H](COP(=O)(O)OP(=O)(O)OP(=O)(O)O)[C@@H](O)[C@H]1O [ATP]")
96

----------
- testedTarget: UniProtKB A3XHF9
- experimentalDetails: GEMMA analysis of NrdB oligomers
- recordedConditions: GEMMA, 2 Psi, NrdB (~1 μM); read-out: concentration at which NrdB tetramers reach half-maximum mass concentration
assayReadout: EC50

>>> observedvalue("Nc1ncnc2c1ncn2[C@H]1C[C@H](O)[C@@H](COP(=O)(O)OP(=O)(O)OP(=O)(O)O)O1")
"~10 µM"
